Measured values drawn from patent US11661420B2 for this set.

Tested on: HBV DNA
test.description: Cryopreserved PHH assay, real-time qPCR of HBV DNA in culture supernatant
Assay type: cell-based, type D HBV in human primary hepatocytes (PHH)
test.context: Hepatitis B virus, 240 h; PHH infected with type D HBV, supernatant day 10, qPCR
Param label: returns class 1 when EC50 < 0.02 µM, returns class 0 otherwise, including exact equality.

structure.smiles | class.name
CC1(C)N=C(c2ccc(-c3ccc(C(=O)O)cc3)cn2)Nc2c(Cl)cccc21 | class 0
CC1(C)N=C(c2cc(-c3ccc(C(=O)O)cc3)co2)Nc2c(Cl)cccc21 | class 0
CC1(C)OC(c2nc(-c3ccc(C(=O)O)cc3)cs2)=Nc2ccccc21 | class 1
CCC1(CC)N=C(c2nc(-c3ccc(C(=O)O)cc3)cs2)Nc2ccccc21 | class 1
CC1(C)N=C(c2nc(-c3ccc(C(=O)O)cc3)co2)Nc2c(Cl)cccc21 | class 1
O=C(O)c1ccc(-c2csc(-c3cc(=O)c4cccc(Cl)c4[nH]3)n2)cc1 | class 0
CC1(C)N=C(c2nc(-c3ccc(C(=O)O)cc3)c[nH]2)Nc2ccccc21 | class 0
CC1(C)N=C(c2nc(-c3ccc(C(=O)O)cc3)cs2)Nc2c(Cl)cccc21 | class 1

###

Test system: HBV DNA
test.description: Cryopreserved PHH assay, real-time qPCR of HBV DNA in culture supernatant
Format: cell-based, type D HBV in human primary hepatocytes (PHH)
test.context: Hepatitis B virus, 240 h; PHH infected with type D HBV, supernatant day 10, qPCR
Attribute: EC50

compound | uom | result.modifier | EC50
CCOC(=O)c1ccc(-c2csc(C3=NC(C)(C)c4ccccc4N3)n2)cc1 [Compound I-73] | nM | = | 13.4
CC1(C)N=C(c2ncc(-c3ccc(C(=O)O)cc3)cn2)Nc2c(Cl)cccc21 [Compound I-49] | nM | = | 10900
O=C(O)c1ccc(-c2ccc(-c3cc(=O)c4cccc(Cl)c4o3)cc2)cc1 [Compound I-14] | nM | > | 20000
O=C(O)C1CCN(c2ccc3c(=O)c4cccc(Cl)c4oc3c2)C1 (centres unmarked) [A, reference compound] | nM | = | 576
CC1(C)N=C(c2nc(-c3ccc(C(N)=O)cc3)cs2)Nc2ccccc21 [Compound I-71] | nM | = | 31.6
CC1N=C(c2nc(-c3ccc(C(=O)O)cc3)cs2)Nc2c(Cl)cccc21 (centres unmarked) [Compound I-2] | nM | = | 6.5
CC1(C)N=C(c2nc(-c3ccc(C(=O)O)cc3)cs2)Nc2cc(Cl)ccc21 [Compound I-25] | nM | = | 98.8
CC1(C)N=C(c2nc(-c3ccc(C(=O)O)cc3)cs2)Oc2ccccc21 [Compound I-68] | nM | = | 81.1

###

System: HBV DNA
test.description: Cryopreserved PHH assay, real-time qPCR of HBV DNA in culture supernatant
Assay type: cell-based, type D HBV in human primary hepatocytes (PHH)
test.context: Hepatitis B virus, 240 h; PHH infected with type D HBV, supernatant day 10, qPCR
reported.endpoint: EC50

molecule | reported.endpoint | result
O=C(O)c1ccc(-c2csc(C3=NC4(COC4)c4cccc(Cl)c4N3)n2)cc1 | EC50 | 21 nM
CC1(C)N=C(c2nc(-c3ccc(C(=O)O)cc3)cs2)Nc2c(Br)cccc21 | EC50 | 10 nM
CC1(C)N=C(c2ccc(-c3ccc(C(=O)O)cc3)cc2F)Nc2c(Cl)cccc21 | EC50 | 48800 nM
O=C(O)c1ccc(-c2csc(C3=NCc4cccc(Cl)c4N3)n2)cc1 | EC50 | 22200 nM
CC1(C)N=C(c2nc(-c3cccc(C(=O)O)c3)cs2)Nc2c(Cl)cccc21 | EC50 | 9960 nM
CC1(C)N=C(c2nc(-c3ccc(-c4nnn[nH]4)cc3)cs2)Nc2ccccc21 | EC50 | 8090 nM
O=C(O)c1ccc(-c2csc(C3=NC4(CC4)c4cccc(Cl)c4N3)n2)cc1 | EC50 | 11 nM
CC1(C)N=C(c2cc(-c3ccc(C(=O)O)cc3)c[nH]2)Nc2c(Cl)cccc21 | EC50 | 9.7 nM
CC1(C)N=C(c2nc(-c3ccc(C(=O)O)cc3)cs2)Nc2c(C(F)(F)F)cccc21 | EC50 | 8.3 nM
CC1N=C(c2ccc(-c3ccc(C(=O)O)cc3)cc2)Nc2c(Cl)cccc21 (stereo not drawn) | EC50 | > 50000 nM
CC1(C)N=C(c2nc(-c3ccc(C(=O)O)cc3F)cs2)Nc2ccccc21 | EC50 | 16 nM
CC1(C)N=C(c2nc(-c3ccc(C(=O)O)cc3)cs2)Nc2c(F)cccc21 | EC50 | 6.9 nM
CC1(C)N=C(c2nc(-c3ccc(C(=O)O)cn3)cs2)Nc2ccccc21 | EC50 | 171 nM
CC1(C)N=C(c2nc(-c3ccc(C(=O)O)cc3)cs2)Nc2ccc(Cl)cc21 | EC50 | 16.7 nM
CC1(C)N=C(c2nc(-c3ccc(C(=O)O)nc3)cs2)Nc2ccccc21 | EC50 | 1130 nM
CC1(C)N=C(c2nc(-c3ccc(C(=O)O)cc3)cs2)Nc2c(OC(F)(F)F)cccc21 | EC50 | 3 nM
CC1(C)N=C(c2nc(-c3ccc(C(=O)O)cc3)cs2)Nc2ccccc21 | EC50 | 5 nM
CC1(C)N=C(c2nc(-c3ccc(C(=O)NS(C)(=O)=O)cc3)cs2)Nc2ccccc21 | EC50 | 30.4 nM
CC1(C)N=C(c2nc(-c3ccc(C(=O)O)cc3)cs2)Nc2c(F)cc(F)cc21 | EC50 | 7.12 nM
O=C(O)c1ccc(-c2csc(-c3cc(=O)c4cccc(Cl)c4o3)n2)cc1 | EC50 | 28400 nM
COc1cc(-c2csc(C3=NC(C)(C)c4ccccc4N3)n2)ccc1C(=O)O | EC50 | 31 nM
